Listed here: items and their measured TGI.
# Tested on: IGROV1 ovarian
# assay-notes: NCI tumour cell line growth inhibition, 48 h
metric: TGI

molecule=C1CSCCSCCCSCCSCCCSCCSCCCSCCSC1 recorded_value="> 100 µM"
molecule="Cc1ccc(C2C3Cc4ccccc4C3=NN2c2ccc(S(=O)(=O)/N=c3\\scc(-c4ccccc4)n3-c3ccccc3)cc2)cc1 (configuration not stated)" recorded_value="> 100 µM"
molecule=Cc1cc2c(c(C(N)=O)c1C)-c1cc(Cl)cc(Cl)c1C2=O recorded_value="> 100 µM"
molecule=O=C1OC(=O)c2c1c(-c1ccccc1)nc1ccccc21 recorded_value="> 100 µM"
molecule="COc1ccc(OC(=O)CC2Cc3cc(OC)c(OC)c(OC)c3-c3ccc(SC)c(=O)cc32)cc1 (configuration not stated)" recorded_value="> 100 µM"
molecule=COc1cc(C2(C)SCCCS2)cc(OC)c1OC recorded_value="> 100 µM"
molecule=CCc1c(C)nc2sc3c(N)ncnc3c2c1C recorded_value="> 25 µM"
molecule="CC1CC(C#N)=C2NCCN2C1=O (configuration not stated)" recorded_value="> 100 µM"
molecule=CCN(CC)c1nnc(CCCCCCCCc2nnc(N(CC)CC)o2)o1 recorded_value="> 100 µM"
molecule=ClC1=C(Cl)C(Cl)(Cl)c2c3c(c4c(c21)C(Cl)(Cl)C(Cl)=C4Cl)C(Cl)(Cl)C(Cl)=C3Cl recorded_value="> 100 µM"
molecule=COc1cccc(Oc2ccccc2NC(=O)CNC(=O)c2cccc3ccccc23)c1 recorded_value="> 25 µM"
molecule=COc1cc2c3c([nH]c2c(OC)c1OC)CCN(Cc1ccccc1)C3 recorded_value="> 100 µM"
molecule=N#CCCNc1nonc1-c1nc2ccccc2n1CC(=O)c1ccc(NC(=O)[C@@H](N)CCCCN)cc1 recorded_value="> 100 µM"
molecule=Nc1nc(N)c(CCCCc2ccccc2)c(N)n1 recorded_value="> 100 µM"
molecule="CCN1C(=O)N(CC)C2C1NN=c1s/c(=C\\c3ccc(F)cc3)c(=O)n12 (configuration not stated)" recorded_value="> 100 µM"
molecule=COc1ccc(NC(=O)C(=O)/C=C(\O)c2ccccc2)cc1 recorded_value="> 10 µM"
molecule=Fc1cccc(F)c1C(Nc1nncs1)Nc1nncs1 recorded_value="> 100 µM"
